Reference for the values: ChEMBL document CHEMBL4699596

Molecular target: Macrophage metalloelastase (Homo sapiens, UniProt P39900)
Sequence (P39900 106-470 limits assumed): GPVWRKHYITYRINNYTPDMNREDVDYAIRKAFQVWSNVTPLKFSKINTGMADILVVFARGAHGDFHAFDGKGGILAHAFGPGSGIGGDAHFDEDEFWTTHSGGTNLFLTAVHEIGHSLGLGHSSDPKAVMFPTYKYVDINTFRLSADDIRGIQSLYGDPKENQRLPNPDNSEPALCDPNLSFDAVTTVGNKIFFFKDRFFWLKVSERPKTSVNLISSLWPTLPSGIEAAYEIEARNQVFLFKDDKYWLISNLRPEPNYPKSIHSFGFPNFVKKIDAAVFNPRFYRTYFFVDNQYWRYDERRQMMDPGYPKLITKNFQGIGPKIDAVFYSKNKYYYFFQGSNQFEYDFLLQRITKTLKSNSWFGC
Test: Binding affinity to recombinant human 15N-labelled MMP12 catalytic domain (Gly106 to Gly263 residues) expressed in Escherichia coli BL21 Codon Plus cells assessed as ratio of peak intensities of L212 and I220 in bound versus the unbound form at 10 uM by 1D-1H NMR analysis
Non-standard residues stand in square brackets, D forms with d. Residues, ends and D or L forms follow the SMILES beside them. *: point of attachment. dPhe(3-Cl) = N[C@H](Cc1cccc(Cl)c1)C(=O)O; dPhe(3-Me) = Cc1cccc(C[C@@H](N)C(=O)O)c1; dPhe(2-F) = N[C@H](Cc1ccccc1F)C(=O)O; d(hPhe) = N[C@H](CCc1ccccc1)C(=O)O; Bn = c1ccc(C*)cc1; NHOH = ON*
quantity_name: Ratio

molecule="CC(=O)N[C@@H](COCc1ccccc1)C(=O)N[C@H](CCc1ccccc1)C(=O)N[C@H](Cc1ccc(O)cc1)C(=O)NO (Ac-Ser(Bn)-[d(hPhe)]-[dY]-{NHOH})" reported_measurement="> 1"
molecule="CC(=O)N[C@@H](COCc1ccccc1)C(=O)N[C@H](CCc1ccccc1)C(=O)N[C@H](Cc1cccc(C)c1)C(=O)NO (Ac-Ser(Bn)-[d(hPhe)]-[dPhe(3-Me)]-{NHOH})" reported_measurement="> 1"
molecule=CC(=O)N[C@@H](COCc1ccccc1)C(=O)N[C@H](CCc1ccc(C(F)(F)F)cc1)C(=O)N[C@H](Cc1ccccc1)C(=O)NO reported_measurement=1
molecule="CC(=O)N[C@@H](Cc1c[nH]c2ccccc12)C(=O)N[C@H](CCc1ccccc1)C(=O)N[C@H](Cc1ccccc1)C(=O)NO (HELM PEPTIDE1{[ac].W.[O=C([C@@H](CCc1ccccc1)N[*:1])[*:2]].[dF].[ON[*:1]]}$$$$V2.0)" reported_measurement=1
molecule=CC(=O)N[C@@H](COCc1ccccc1)C(=O)N[C@H](CCc1ccccc1)C(=O)N[C@H](Cc1ccc(OS(=O)(=O)F)cc1)C(=O)NO reported_measurement="< 1"

Entry CC(=O)N[C@@H](COCc1ccccc1)C(=O)N[C@H](CCc1ccccc1)C(=O)N[C@H](Cc1ccccc1F)C(=O)NO (Ac-Ser(Bn)-[d(hPhe)]-[dPhe(2-F)]-{NHOH}) under Macrophage metalloelastase (Homo sapiens, UniProt P39900) had Ratio of > 1

// molecule CC(=O)N[C@@H](COCc1ccccc1)C(=O)N[C@H](CCc1ccccc1)C(=O)N[C@H](Cc1cccc(Cl)c1)C(=O)NO (Ac-Ser(Bn)-[d(hPhe)]-[dPhe(3-Cl)]-{NHOH}) , assay Macrophage metalloelastase (Homo sapiens, UniProt P39900), Ratio value: > 1
